- experimental_details: Oral bioavailability in rat at 10 mg/kg
- Type: ADME, organism-based
- condition_info: in vivo
measured_property: bioavailability

[[record]]
smi = "C(#Cc1ccc2ccccc2n1)c1ccccn1"
assay_value = "15.9%"


----------
- experimental_details: Cmax in rat at 10 mg/kg, po
- Type: ADME, organism-based
- Design: dose 10 mg/kg, route oral
- condition_info: in vivo
measured_property: Cmax

[[record]]
smi = "C(#Cc1ccc2ccccc2n1)c1ccccn1"
measured_property = "Cmax"
assay_value = "430 ng/mL"


----------
- experimental_details: Half life in rat at 10 mg/kg, po
- Assay type: ADME, organism-based
- Set-up: dose 10 mg/kg, route oral
- condition_info: in vivo
measured_property: half-life (min)

[[record]]
smi = "C(#Cc1ccc2ccccc2n1)c1ccccn1"
measured_property = "half-life"
assay_value = 58.2


----------
- experimental_target: Metabotropic glutamate receptor 5 (Homo sapiens)
- experimental_details: Antagonist activity at human mGluR5 expressed in HEK293 cells assessed as inhibition of L-glutamate-induced calcium mobilization by FDSS6000 assay
- Sequence (P41594 whole entry): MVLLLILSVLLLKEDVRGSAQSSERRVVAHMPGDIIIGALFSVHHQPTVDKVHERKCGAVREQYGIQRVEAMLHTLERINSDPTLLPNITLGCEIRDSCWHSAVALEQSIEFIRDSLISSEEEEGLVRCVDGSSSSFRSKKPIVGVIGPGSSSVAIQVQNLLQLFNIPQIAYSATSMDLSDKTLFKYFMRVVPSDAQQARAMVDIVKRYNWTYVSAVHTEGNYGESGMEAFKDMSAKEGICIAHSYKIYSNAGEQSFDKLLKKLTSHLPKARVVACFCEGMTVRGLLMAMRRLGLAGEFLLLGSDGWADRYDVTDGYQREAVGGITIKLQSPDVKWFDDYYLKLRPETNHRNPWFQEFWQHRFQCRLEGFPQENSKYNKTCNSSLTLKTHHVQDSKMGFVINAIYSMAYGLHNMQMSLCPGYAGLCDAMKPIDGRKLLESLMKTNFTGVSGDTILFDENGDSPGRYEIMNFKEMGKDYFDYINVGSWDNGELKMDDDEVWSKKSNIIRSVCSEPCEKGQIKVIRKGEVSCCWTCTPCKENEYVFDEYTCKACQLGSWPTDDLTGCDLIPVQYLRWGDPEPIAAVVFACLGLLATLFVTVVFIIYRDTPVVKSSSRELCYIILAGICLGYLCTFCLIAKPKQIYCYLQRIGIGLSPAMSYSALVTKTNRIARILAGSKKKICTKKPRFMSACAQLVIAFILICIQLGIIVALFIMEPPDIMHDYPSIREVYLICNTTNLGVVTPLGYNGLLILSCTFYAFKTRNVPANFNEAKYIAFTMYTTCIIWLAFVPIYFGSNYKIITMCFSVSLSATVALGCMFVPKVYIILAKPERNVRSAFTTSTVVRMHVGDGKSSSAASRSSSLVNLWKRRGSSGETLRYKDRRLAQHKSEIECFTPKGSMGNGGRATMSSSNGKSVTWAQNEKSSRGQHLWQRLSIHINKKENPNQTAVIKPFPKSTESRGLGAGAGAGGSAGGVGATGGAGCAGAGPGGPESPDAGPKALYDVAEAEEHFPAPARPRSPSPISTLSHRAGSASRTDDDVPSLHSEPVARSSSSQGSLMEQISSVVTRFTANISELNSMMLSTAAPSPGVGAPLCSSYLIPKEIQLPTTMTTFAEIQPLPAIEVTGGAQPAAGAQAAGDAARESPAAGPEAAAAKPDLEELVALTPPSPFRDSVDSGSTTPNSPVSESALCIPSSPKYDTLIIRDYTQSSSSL
measured_property: IC50

[[record]]
smi = "Brc1cccc2nc(C#Cc3ccccn3)ccc12"
measured_property = "IC50"
assay_value = "750 nM"


----------
- experimental_target: Metabotropic glutamate receptor 5 (Homo sapiens, UniProt P41594)
- experimental_details: Antagonist activity at human mGluR5 expressed in HEK293 cells assessed as inhibition of L-glutamate-induced calcium mobilization at 10 uM by FDSS6000 assay
- Format: functional, cell-based
- Sequence (P41594 21-1212 limits assumed): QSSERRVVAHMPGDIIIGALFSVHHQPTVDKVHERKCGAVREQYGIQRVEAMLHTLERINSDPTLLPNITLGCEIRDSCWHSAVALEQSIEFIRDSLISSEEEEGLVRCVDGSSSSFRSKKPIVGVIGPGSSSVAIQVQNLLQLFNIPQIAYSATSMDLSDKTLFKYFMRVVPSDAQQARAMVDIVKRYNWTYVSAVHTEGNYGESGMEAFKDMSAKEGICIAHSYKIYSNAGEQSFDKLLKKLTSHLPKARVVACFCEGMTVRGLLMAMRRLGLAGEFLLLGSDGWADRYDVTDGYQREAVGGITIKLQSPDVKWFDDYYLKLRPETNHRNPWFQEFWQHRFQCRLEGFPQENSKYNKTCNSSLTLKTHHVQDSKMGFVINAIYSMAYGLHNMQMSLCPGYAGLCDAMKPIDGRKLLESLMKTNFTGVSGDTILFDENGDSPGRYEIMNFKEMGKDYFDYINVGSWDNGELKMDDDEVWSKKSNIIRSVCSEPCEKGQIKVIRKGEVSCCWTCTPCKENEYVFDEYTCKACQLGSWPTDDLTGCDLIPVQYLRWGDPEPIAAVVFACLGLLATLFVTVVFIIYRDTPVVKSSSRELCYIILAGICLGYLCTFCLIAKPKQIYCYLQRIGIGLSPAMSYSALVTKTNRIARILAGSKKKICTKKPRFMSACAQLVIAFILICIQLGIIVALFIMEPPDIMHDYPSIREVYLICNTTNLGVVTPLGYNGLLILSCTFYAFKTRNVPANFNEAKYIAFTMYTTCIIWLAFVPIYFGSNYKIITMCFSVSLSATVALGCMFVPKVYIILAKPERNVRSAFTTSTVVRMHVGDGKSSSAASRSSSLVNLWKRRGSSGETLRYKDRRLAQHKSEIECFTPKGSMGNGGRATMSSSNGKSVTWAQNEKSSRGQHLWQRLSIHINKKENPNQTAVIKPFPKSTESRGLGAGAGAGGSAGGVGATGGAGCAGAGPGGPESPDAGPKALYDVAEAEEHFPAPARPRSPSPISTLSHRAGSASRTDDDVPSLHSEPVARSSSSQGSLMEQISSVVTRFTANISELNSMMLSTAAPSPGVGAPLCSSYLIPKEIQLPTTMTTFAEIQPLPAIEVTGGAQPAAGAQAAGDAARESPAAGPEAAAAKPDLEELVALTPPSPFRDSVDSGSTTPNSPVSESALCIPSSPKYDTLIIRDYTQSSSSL
Returns the class for an entry based on its inhibition. Class ranges: group A (below 30%), group B (30% to below 60%), group C (60% or more)

[[record]]
smi = "C(#Cc1ccc2ccccc2n1)c1ccccn1"
qualitative_label = "group C"

[[record]]
smi = "Oc1cccc2nc(C#Cc3ccccn3)ccc12"
qualitative_label = "group A"

[[record]]
smi = "Clc1cccc2nc(C#Cc3ccccn3)ccc12"
qualitative_label = "group C"

[[record]]
smi = "Fc1cnc(C#Cc2ccc3ccccc3n2)nc1"
qualitative_label = "group A"

[[record]]
smi = "CC(C)(C)C(=O)Oc1cccc2nc(C#Cc3cccnc3)ccc12"
qualitative_label = "group A"

[[record]]
smi = "Cc1ccc(C#Cc2ccc3ccccc3n2)nc1"
qualitative_label = "group C"

[[record]]
smi = "Clc1cccc2nc(C#Cc3cccnc3)ccc12"
qualitative_label = "group A"

[[record]]
smi = "Oc1cccc2nc(C#Cc3cccnc3)ccc12"
qualitative_label = "group A"

[[record]]
smi = "Fc1cccnc1C#Cc1ccc2ccccc2n1"
qualitative_label = "group B"

[[record]]
smi = "Cc1ccnc(C#Cc2ccc3ccccc3n2)c1"
qualitative_label = "group C"

[[record]]
smi = "Fc1ccc(C#Cc2ccc3ccccc3n2)nc1"
qualitative_label = "group C"

[[record]]
smi = "Brc1cccc2nc(C#Cc3cccnc3)ccc12"
qualitative_label = "group B"

[[record]]
smi = "COc1cccc2nc(C#Cc3cccnc3)ccc12"
qualitative_label = "group C"

[[record]]
smi = "Oc1cccc2nc(C#Cc3ccccc3)ccc12"
qualitative_label = "group A"

[[record]]
smi = "C(#Cc1ccc2ccccc2n1)c1cccnc1"
qualitative_label = "group C"

[[record]]
smi = "FC(F)(F)c1cccc(C#Cc2ccc3ccccc3n2)n1"
qualitative_label = "group A"

[[record]]
smi = "CC(C)(C)C(=O)Oc1cccc2nc(C#Cc3ccccc3)ccc12"
qualitative_label = "group A"

[[record]]
smi = "N#Cc1ccnc(C#Cc2ccc3ccccc3n2)c1"
qualitative_label = "group C"

[[record]]
smi = "COc1cccc2nc(C#Cc3ccccc3)ccc12"
qualitative_label = "group C"

[[record]]
smi = "Clc1cccc2nc(C#Cc3ccccc3)ccc12"
qualitative_label = "group A"

[[record]]
smi = "Fc1cccc(C#Cc2ccc3ccccc3n2)n1"
qualitative_label = "group B"

[[record]]
smi = "COc1cccc(C#Cc2ccc3ccccc3n2)n1"
qualitative_label = "group B"

[[record]]
smi = "FC(F)(F)c1ccnc(C#Cc2ccc3ccccc3n2)c1"
qualitative_label = "group B"

[[record]]
smi = "FC(F)(F)c1ccnc(C#Cc2ccc3ccccc3n2)n1"
qualitative_label = "group A"

[[record]]
smi = "CCOc1cccc2nc(C#Cc3cccnc3)ccc12"
qualitative_label = "group C"

[[record]]
smi = "FC(F)(F)c1ccc(C#Cc2ccc3ccccc3n2)nc1"
qualitative_label = "group B"

[[record]]
smi = "FC(F)(F)c1cccnc1C#Cc1ccc2ccccc2n1"
qualitative_label = "group A"

[[record]]
smi = "C(#Cc1ccc2ccccc2n1)c1cncnc1"
qualitative_label = "group A"


----------
- experimental_target: UniProt:P11712
- Sequence (P11712 whole entry): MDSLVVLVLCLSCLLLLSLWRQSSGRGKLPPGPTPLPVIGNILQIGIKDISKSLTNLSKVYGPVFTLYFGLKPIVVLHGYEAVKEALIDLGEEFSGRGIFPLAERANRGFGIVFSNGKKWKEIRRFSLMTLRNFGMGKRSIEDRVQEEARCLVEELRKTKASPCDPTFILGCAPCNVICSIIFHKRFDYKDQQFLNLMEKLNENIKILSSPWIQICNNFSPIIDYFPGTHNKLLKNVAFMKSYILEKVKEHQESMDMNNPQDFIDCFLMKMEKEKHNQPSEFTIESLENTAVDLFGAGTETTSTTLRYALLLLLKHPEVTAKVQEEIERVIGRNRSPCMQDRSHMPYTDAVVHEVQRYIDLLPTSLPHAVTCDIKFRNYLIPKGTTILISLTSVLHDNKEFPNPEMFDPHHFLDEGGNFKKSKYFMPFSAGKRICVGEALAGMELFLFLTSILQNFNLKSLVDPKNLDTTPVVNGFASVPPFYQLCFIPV
- experimental_details: Inhibition of CYP2C9 (unknown origin) assessed as residual activity at 10 uM
- Format: ADME
- condition_info: read-out: Activity
# Lookup of reported activity at 10 µM keyed by entry
measured_property: activity at 10 µM (%)

[[record]]
smi = "COc1cccc2nc(C#Cc3ccccc3)ccc12"
measurement_qualifier = "="
assay_value = 55

[[record]]
smi = "C(#Cc1ccc2ccccc2n1)c1ccccn1"
measurement_qualifier = ">"
assay_value = 99

[[record]]
smi = "Brc1cccc2nc(C#Cc3ccccn3)ccc12"
measurement_qualifier = "="
assay_value = 52


----------
- experimental_details: Clearance in rat at 10 mg/kg, iv
- Assay type: ADME, organism-based
- Parameters: dose 10 mg/kg, route intravenous
- condition_info: in vivo
measured_property: clearance (mL/min/kg)

[[record]]
smi = "C(#Cc1ccc2ccccc2n1)c1ccccn1"
measured_property = "clearance"
units = "mL/min/kg"
assay_value = 84.9


----------
- experimental_details: Metabolic stability in human liver microsomes assessed as compound remaining at 1 uM after 30 mins
- Type: ADME, Microsome
- condition_info: read-out: Stability
measured_property: remaining at 0.5 h, 1 µM (%)

[[record]]
smi = "Brc1cccc2nc(C#Cc3ccccn3)ccc12"
measured_property = "remaining at 0.5 h, 1 µM"
units = "%"
measurement_qualifier = "="
assay_value = 98

[[record]]
smi = "COc1cccc2nc(C#Cc3ccccc3)ccc12"
measured_property = "remaining at 0.5 h, 1 µM"
units = "%"
measurement_qualifier = "<"
assay_value = 1

[[record]]
smi = "C(#Cc1ccc2ccccc2n1)c1ccccn1"
measured_property = "remaining at 0.5 h, 1 µM"
units = "%"
measurement_qualifier = "="
assay_value = 88

[[record]]
smi = "COc1cccc2nc(C#Cc3cccnc3)ccc12"
measured_property = "remaining at 0.5 h, 1 µM"
units = "%"
measurement_qualifier = "<"
assay_value = 1


----------
- experimental_target: CYP3A4 (Homo sapiens, UniProt P08684)
- Sequence (P08684 whole entry): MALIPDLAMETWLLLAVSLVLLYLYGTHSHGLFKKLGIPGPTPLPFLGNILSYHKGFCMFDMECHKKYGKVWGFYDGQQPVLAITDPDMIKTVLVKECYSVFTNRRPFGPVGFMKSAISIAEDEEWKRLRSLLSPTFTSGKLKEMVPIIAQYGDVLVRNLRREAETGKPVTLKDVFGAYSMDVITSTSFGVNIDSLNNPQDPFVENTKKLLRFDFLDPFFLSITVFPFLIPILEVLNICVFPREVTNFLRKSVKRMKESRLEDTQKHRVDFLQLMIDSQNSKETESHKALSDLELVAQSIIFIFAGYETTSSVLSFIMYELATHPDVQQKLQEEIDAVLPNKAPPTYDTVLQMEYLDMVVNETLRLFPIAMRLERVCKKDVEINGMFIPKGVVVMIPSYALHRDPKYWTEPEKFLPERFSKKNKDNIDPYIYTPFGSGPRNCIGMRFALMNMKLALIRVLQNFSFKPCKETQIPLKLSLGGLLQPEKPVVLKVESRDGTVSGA
- experimental_details: Inhibition of CYP3A4 (unknown origin) assessed as residual activity at 10 uM
- Type: ADME
- condition_info: read-out: Activity
# Lookup of reported activity at 10 µM keyed by entry
measured_property: activity at 10 µM (%)

[[record]]
smi = "COc1cccc2nc(C#Cc3ccccc3)ccc12"
measured_property = "activity at 10 µM"
units = "%"
assay_value = 50

[[record]]
smi = "Brc1cccc2nc(C#Cc3ccccn3)ccc12"
measured_property = "activity at 10 µM"
units = "%"
assay_value = 56

[[record]]
smi = "C(#Cc1ccc2ccccc2n1)c1ccccn1"
measured_property = "activity at 10 µM"
units = "%"
assay_value = 77


----------
- experimental_target: Metabotropic glutamate receptor 5 (Homo sapiens, UniProt P41594)
- experimental_details: Antagonist activity at human mGluR5 expressed in HEK293 cells assessed as inhibition of L-glutamate-induced calcium mobilization at 1 uM by FDSS6000 assay
- Assay type: functional, cell-based
# Lookup of reported inhibition keyed by entry
measured_property: inhibition (%)

[[record]]
smi = "C(#Cc1ccc2ccccc2n1)c1cccnc1"
experimental_target = "Metabotropic glutamate receptor 5 (Homo sapiens, UniProt P41594)"
measured_property = "inhibition"
assay_value = 43.9

[[record]]
smi = "COc1cccc(C#Cc2ccc3ccccc3n2)n1"
experimental_target = "Metabotropic glutamate receptor 5 (Homo sapiens, UniProt P41594)"
measured_property = "inhibition"
assay_value = 16.6

[[record]]
smi = "FC(F)(F)c1ccnc(C#Cc2ccc3ccccc3n2)n1"
experimental_target = "Metabotropic glutamate receptor 5 (Homo sapiens, UniProt P41594)"
measured_property = "inhibition"
assay_value = 17.3

[[record]]
smi = "C(#Cc1ccc2ccccc2n1)c1ccccc1"
experimental_target = "Metabotropic glutamate receptor 5 (Homo sapiens, UniProt P41594)"
measured_property = "inhibition"
assay_value = 35.9

[[record]]
smi = "Fc1ccc(C#Cc2ccc3ccccc3n2)nc1"
experimental_target = "Metabotropic glutamate receptor 5 (Homo sapiens, UniProt P41594)"
measured_property = "inhibition"
assay_value = 33.9

[[record]]
smi = "Oc1cccc2nc(C#Cc3cccnc3)ccc12"
experimental_target = "Metabotropic glutamate receptor 5 (Homo sapiens, UniProt P41594)"
measured_property = "inhibition"
assay_value = 25.2

[[record]]
smi = "Fc1cnc(C#Cc2ccc3ccccc3n2)nc1"
experimental_target = "Metabotropic glutamate receptor 5 (Homo sapiens, UniProt P41594)"
measured_property = "inhibition"
assay_value = 16

[[record]]
smi = "Clc1cccc2nc(C#Cc3cccnc3)ccc12"
experimental_target = "Metabotropic glutamate receptor 5 (Homo sapiens, UniProt P41594)"
measured_property = "inhibition"
assay_value = 11.2

[[record]]
smi = "C(#Cc1ccc2ccccc2n1)c1cncnc1"
experimental_target = "Metabotropic glutamate receptor 5 (Homo sapiens, UniProt P41594)"
measured_property = "inhibition"
assay_value = 13.6

[[record]]
smi = "N#Cc1ccnc(C#Cc2ccc3ccccc3n2)c1"
experimental_target = "Metabotropic glutamate receptor 5 (Homo sapiens, UniProt P41594)"
measured_property = "inhibition"
assay_value = 35.2

[[record]]
smi = "FC(F)(F)c1ccnc(C#Cc2ccc3ccccc3n2)c1"
experimental_target = "Metabotropic glutamate receptor 5 (Homo sapiens, UniProt P41594)"
measured_property = "inhibition"
assay_value = 23.3

[[record]]
smi = "Clc1cccc2nc(C#Cc3ccccc3)ccc12"
experimental_target = "Metabotropic glutamate receptor 5 (Homo sapiens, UniProt P41594)"
measured_property = "inhibition"
assay_value = 11.7

[[record]]
smi = "COc1cccc2nc(C#Cc3cccnc3)ccc12"
experimental_target = "Metabotropic glutamate receptor 5 (Homo sapiens, UniProt P41594)"
measured_property = "inhibition"
assay_value = 67.7

[[record]]
smi = "N#Cc1cccc(C#Cc2ccc3ccccc3n2)n1"
experimental_target = "Metabotropic glutamate receptor 5 (Homo sapiens, UniProt P41594)"
measured_property = "inhibition"
assay_value = 33

[[record]]
smi = "Clc1cccc2nc(C#Cc3ccccn3)ccc12"
experimental_target = "Metabotropic glutamate receptor 5 (Homo sapiens, UniProt P41594)"
measured_property = "inhibition"
assay_value = 31

[[record]]
smi = "Oc1cccc2nc(C#Cc3ccccn3)ccc12"
experimental_target = "Metabotropic glutamate receptor 5 (Homo sapiens, UniProt P41594)"
measured_property = "inhibition"
assay_value = 17.4

[[record]]
smi = "C(#Cc1ncccn1)c1ccc2ccccc2n1"
experimental_target = "Metabotropic glutamate receptor 5 (Homo sapiens, UniProt P41594)"
measured_property = "inhibition"
assay_value = 17.1

[[record]]
smi = "FC(F)(F)c1cccnc1C#Cc1ccc2ccccc2n1"
experimental_target = "Metabotropic glutamate receptor 5 (Homo sapiens, UniProt P41594)"
measured_property = "inhibition"
assay_value = 9.49

[[record]]
smi = "Oc1cccc2nc(C#Cc3ccccc3)ccc12"
experimental_target = "Metabotropic glutamate receptor 5 (Homo sapiens, UniProt P41594)"
measured_property = "inhibition"
assay_value = 18

[[record]]
smi = "FC(F)(F)c1ccc(C#Cc2ccc3ccccc3n2)nc1"
experimental_target = "Metabotropic glutamate receptor 5 (Homo sapiens, UniProt P41594)"
measured_property = "inhibition"
assay_value = 13

[[record]]
smi = "Cc1ccc(C#Cc2ccc3ccccc3n2)nc1"
experimental_target = "Metabotropic glutamate receptor 5 (Homo sapiens, UniProt P41594)"
measured_property = "inhibition"
assay_value = 29

[[record]]
smi = "CCOc1cccc2nc(C#Cc3cccnc3)ccc12"
experimental_target = "Metabotropic glutamate receptor 5 (Homo sapiens, UniProt P41594)"
measured_property = "inhibition"
assay_value = 47.2

